- study-target: T1, Recombinant MBP-mutCALR Type 1 fusion protein (human)
- T1 construct: custom made at Cepter; also called recombinant mutCALR protein
- measurement-notes: SPR, IgG captured, 1:1 fit, Exp. 1
- Experimental: Experiment 1: Recombinant MBP-mutCALR Type 1 fusion protein was custom made at Cepter (cepterbiopartners.com). Data for the interaction of antibodies with recombinant MBP-mutCALR Type 1 fusion protein were collected at 25° C. on a Biacore 8K instrument (Cytiva, Marlborough, Mass.), and all reagents were obtained from Cytiva unless otherwise specified. The experiments were conducted using Tris-buffered saline (pH 7.2), 0.005% Surfactant P20, 1 mM CaCl₂) as running buffer. […]
observation-type: kon (M⁻¹ s⁻¹)

1) anti-mutCALR antibody clone 22 (antibody, human IgG1, lambda, V domains shown, human IgG1) VH: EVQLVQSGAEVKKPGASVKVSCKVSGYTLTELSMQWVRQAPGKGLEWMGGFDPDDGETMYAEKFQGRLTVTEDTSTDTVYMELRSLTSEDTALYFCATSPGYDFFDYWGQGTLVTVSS VL: SYVLTQPPSVSVAPGKTARITCGGNNIGSKNVHWYQQKPGQAPVLVVYDDSDRPSGIPERFSGSNSGNTATLTINRVEAGDEADYYCQVWDSSNDLLIFGGGTKLTVLG; 229000
2) anti-mutCALR antibody clone 44 (antibody, human IgG1, lambda, V domains shown, human IgG1) VH: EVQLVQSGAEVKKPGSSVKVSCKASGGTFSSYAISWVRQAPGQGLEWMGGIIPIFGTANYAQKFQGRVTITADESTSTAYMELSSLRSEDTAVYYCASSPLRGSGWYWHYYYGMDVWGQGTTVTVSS VL: SYVLTQPPSVSAAPGKTARISCGGNNIRSKSVHWYQQKAGQAPVLVIYQDSKRPSGIPERFSGSNSGNTATLTISGTQAMDEADYYCQAWDSNTVVFGGGTKLTVLG; 263000
